system: enterovirus type 70 (EV 70); assay: Anti-enteroviral cell culture assay (XTT, EC50), EV 70; format: cell-based, enterovirus 70 in MRC-5 cells; conditions: Enterovirus D; ENT-70
parameter: EC50 (µM)
Give the value in µM but do not write µM after it.

CCOC(=O)/C=C\[C@H](CCC(N)=O)NC(=O)[C@H](Cc1ccccc1)n1cccc(NC(=O)c2cc(C)on2)c1=O [Compound 5] :: 0.018
CCOC(=O)/C=C/[C@H](CCC(N)=O)NC(=O)[C@H](Cc1ccccc1)n1cccc(NC(=O)C2CCCC2)c1=O [Compound 6] :: 0.061

Input: Find the measured EC50: item CCOC(=O)/C=C/[C@H](CCC(N)=O)NC(=O)[C@H](Cc1ccccc1)n1cccc(NC(=O)OCc2ccccc2)c1=O [Compound 1] , target or system enterovirus type 70 (EV 70).
Output: 0.012
